Assign TGI to each entry below.
- Tested on: CCRF-CEM leukemia
- Experiment notes: NCI tumour cell line growth inhibition, 48 h

(Q) Bench note: what TGI did CCCCCCCCCCN1CCC(N2CCCCC2)CC1 show?
(A) 9.48 µM

(Q) Further, for S=C1CC(c2ccccc2)Sc2ccc(Cl)cc2N1 (stereo not given) ?
(A) > 100 µM

(Q) Further, for COc1cc([C@@H]2c3cc4c(cc3[C@@H](c3c(O)cc(O)c5c3O[C@H](c3ccc(O)c(O)c3)[C@@H](O)C5)[C@H]3COC(=O)[C@H]23)OCO4)cc(OC)c1O ?
(A) > 100 µM

(Q) Further, for Nc1nc(N)c2cc(CNc3ccc(C(=O)NC(CC(=O)O)C(=O)O)c(Cl)c3)ccc2n1 (stereo not given) ?
(A) > 500 µM

(Q) Further, for COc1cc(C(=O)N2CCc3c([nH]c4c([N+](=O)[O-])c(OC)ccc34)C2C)cc(OC)c1OC (stereo not given) ?
(A) > 100 µM

(Q) Further, for CC/C=C/C/C=C/C/C=C/C/C=C/C/C=C/C/C=C/CCC(=O)Nc1ccn([C@@H]2O[C@H](CO)[C@@H](O)C2(F)F)c(=O)n1 ?
(A) 15.1 µM

(Q) Further, for CN1COCc2cc3cc4c(cc3nc21)OCCO4 ?
(A) > 100 µM

(Q) Further, for COC(=O)/C(=C\c1ccc(N(CCC#N)CCC#N)cc1)NC(=O)c1cc([N+](=O)[O-])ccc1Cl ?
(A) > 100 µM

(Q) Further, for COc1ccc(-c2csc(NC(=O)CSc3nc(C)c(-c4ccccc4)n3Nc3ccccc3)n2)cc1 ?
(A) > 100 µM

(Q) Further, for CCOC(=O)C(C)c1nc2c(Cl)c3ncccc3cc2[nH]c1=O (stereo not given) ?
(A) 68.4 µM

(Q) Further, for COc1ccc2c(c1)C(C)Cc1c(ncnc1-n1cnc3cc(C)ccc31)N2C (stereo not given) ?
(A) 14.5 µM

(Q) Further, for CC(C(=O)n1c2ccccc2c2ccccc21)N(c1ccccc1)c1ccccc1 (stereo not given) ?
(A) 4.02 µM

(Q) Further, for C=CCn1c2c(sc1=S)C(S)N=CN2 (stereo not given) ?
(A) > 100 µM

(Q) Further, for OCC(O)C(O)C(O)/C=N/Nc1nc(O)c(/C=C2\C=Nc3ccccc32)[nH]1 (stereo not given) ?
(A) > 100 µM

(Q) Further, for OCC(O)CNc1ccnc2cc(Cl)ccc12 (stereo not given) ?
(A) > 100 µM

(Q) Further, for O=c1c2ccccc2nc(-c2ccccc2)n1NC(=S)Nc1ccccc1 ?
(A) > 100 µM

(Q) Further, for COC(=O)[C@H](Cc1ccccc1)NC(=O)c1ccc(CNC(=O)/C=C/c2cccc(Oc3ccccc3)c2)cc1 ?
(A) > 100 µM

(Q) Further, for Cc1cccc(N=C2NC(=O)C(CC(=O)Nc3cccc(C)c3C)S2)c1 (stereo not given) ?
(A) > 100 µM

(Q) Further, for COc1ccc(N=Nc2c3c(c(O)c4ccccc24)CCC(C)(C)O3)cc1 ?
(A) 41.7 µM

(Q) Further, for O=C1CCc2ccc3c(c21)CC1(Cc2ccccc2C1)C3 ?
(A) > 100 µM
